Assay: In vivo pharmacokinetics in dogs (IV and PO)
Conditions: male, Beagle, plasma; dog, IV 0.5 mg/kg; read-out: Dog CLp
ENDPOINT LABEL: clearance
A complete answer gives the number and then names the unit.

For `Cc1nc(C)c2c(n1)sc1c(NCc3ccc(C(C)(C)O)cc3)ncnc12` , what is its reported clearance?
24 mL/min/kg

###

Biological target: Human M4 (Homo sapiens, UniProt P08173)
Experiment: mAChR M4 cell-based functional assay (calcium flux, potentiation of EC20 acetylcholine response)
Conditions: CHO-K1 cells with human M4 and Gqi5; increase in EC20 acetylcholine response
Flag rule - EC50 less than 300 nM flags y; the remaining entries get n.

Use these answered entries as a reference point.
| COMPOUND STRUCTURE STRING | ASSIGNED LABEL |
| --- | --- |
| CCc1nc(C)c2c(n1)sc1c(N3CCC(F)(F)C3)nccc12 | y |
| Cc1nc(C2CC2)nc2sc3c(NC4CC4)nccc3c12 | y |
| Cc1nc(C)c2c(n1)sc1c(N3CC[C@@H](F)C3)ncnc12 | n |

Lab log: compare recorded EC50 with 300 nM; is it strictly lower for `Cc1nc(C2CC2)nc2sc3c(NCc4ccc(C(C)(C)O)cc4)nccc3c12` ?
n

###

Assay: Rat brain:plasma distribution
Assay type: in vivo
Details: unbound
ENDPOINT LABEL: Kp uu
Numbers only.

For `Cc1nc(C)c2c(n1)sc1c(NCc3ccc(C(C)(C)O)cc3)ncnc12` , what is its reported Kp uu?
0.5

###

Assay: Rat Fu (plasma)
Assay type: in vitro ADME
Method: Compound 1 was evaluated in several well-known in vitro assays to investigate both metabolism and pharmacokinetics. Bidirectional permeability/efflux was determined in MDCK-MDR1 cells, which originate from transfection of Madin Darby canine kidney (MDCK) cells with the MDR1 gene. […]
ENDPOINT LABEL: fraction unbound

For `Cc1nc(C)c2c(n1)sc1c(NCc3ccc(C(C)(C)O)cc3)ncnc12` , what is its reported fraction unbound?
0.024

###

Please respond with reported Emax at 30 µM for every item in the list.
Molecular target: Human M4 (Homo sapiens)
Construct: expressed in transfected cells
Assay: mAChR M4 cell-based functional assay (calcium flux, potentiation of EC20 acetylcholine response)
Settings: % ACh maximum at 30 μM; human M4
One number for each entry, in %.

// input: 3 compounds below; output: Emax at 30 µM for each
1. Cc1nc(C)c2c(n1)sc1c(NCc3ccc(C(C)(C)O)cc3F)nccc12
2. Cc1nc(C)c2c(n1)sc1c(NCc3ccc(C(C)(O)C4CC4)cc3)ncnc12 (stereo not drawn)
3. Cc1nc(C)c2c(n1)sc1c(NC3CCCC3)ncnc12

[88.7, 71.2, 55.5]

###

Test: Rat Fu (brain)
Assay type: in vitro ADME
Experimental: Compound 1 was evaluated in several well-known in vitro assays to investigate both metabolism and pharmacokinetics. Bidirectional permeability/efflux was determined in MDCK-MDR1 cells, which originate from transfection of Madin Darby canine kidney (MDCK) cells with the MDR1 gene. […]
ENDPOINT LABEL: fraction unbound
One number for each entry.

For Cc1nc(C)c2c(n1)sc1c(NCc3ccc(C(C)(C)O)cc3)ncnc12 [Compound 1] , what is its reported fraction unbound?
0.016

###

Target: Human M4 (Homo sapiens)
Construct: expressed in transfected cells
Sequence (P08173 1-479): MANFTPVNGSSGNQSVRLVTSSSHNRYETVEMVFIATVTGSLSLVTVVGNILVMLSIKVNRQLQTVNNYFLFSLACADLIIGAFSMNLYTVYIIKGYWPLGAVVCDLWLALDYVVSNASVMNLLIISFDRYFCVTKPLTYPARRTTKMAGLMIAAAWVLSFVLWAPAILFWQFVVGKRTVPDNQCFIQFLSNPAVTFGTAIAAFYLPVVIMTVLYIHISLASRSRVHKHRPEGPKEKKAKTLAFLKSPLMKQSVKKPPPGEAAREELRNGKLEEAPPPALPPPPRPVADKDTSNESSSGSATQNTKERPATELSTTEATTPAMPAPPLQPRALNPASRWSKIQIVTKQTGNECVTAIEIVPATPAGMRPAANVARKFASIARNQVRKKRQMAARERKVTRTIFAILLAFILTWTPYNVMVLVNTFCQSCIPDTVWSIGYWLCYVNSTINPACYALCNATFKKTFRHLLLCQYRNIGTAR
Test: mAChR M4 cell-based functional assay (calcium flux, potentiation of EC20 acetylcholine response)
Conditions: % ACh maximum at 30 μM; human M4
Please respond with reported Emax at 30 µM for every item in the list.
One number for each entry, in %.

// input: 2 molecules below; output: Emax at 30 µM for each
1. Cc1nc(C2CC2)nc2sc3c(N4CCCC4)nccc3c12
2. Cc1nc(C2CC2)nc2sc3c(NC4CCCC4)nccc3c12

65
69

// input: 5 molecules below; output: Emax at 30 µM for each
1. Cc1nc(C)c2c(n1)sc1c(NC3CCC3)nccc12
2. Cc1nc(C)c2c(n1)sc1c(N3CC4(C3)CC(F)(F)C4)ncnc12
3. CCN(CC)c1nccc2c1sc1nc(C)nc(C)c12
4. Cc1nc(C)c2c(n1)sc1c(N3CCCCC3)nccc12
5. Cc1nc(C2CC2)nc2sc3c(NC4CC4)nccc3c12

94.8
42.9
37.7
57.9
103

Entry source: patent US10736898B2
